Molecular target: Estrogen receptor (Mus musculus) (UniProt O08537+P19785)
Sequence (O08537 whole entry, looked up): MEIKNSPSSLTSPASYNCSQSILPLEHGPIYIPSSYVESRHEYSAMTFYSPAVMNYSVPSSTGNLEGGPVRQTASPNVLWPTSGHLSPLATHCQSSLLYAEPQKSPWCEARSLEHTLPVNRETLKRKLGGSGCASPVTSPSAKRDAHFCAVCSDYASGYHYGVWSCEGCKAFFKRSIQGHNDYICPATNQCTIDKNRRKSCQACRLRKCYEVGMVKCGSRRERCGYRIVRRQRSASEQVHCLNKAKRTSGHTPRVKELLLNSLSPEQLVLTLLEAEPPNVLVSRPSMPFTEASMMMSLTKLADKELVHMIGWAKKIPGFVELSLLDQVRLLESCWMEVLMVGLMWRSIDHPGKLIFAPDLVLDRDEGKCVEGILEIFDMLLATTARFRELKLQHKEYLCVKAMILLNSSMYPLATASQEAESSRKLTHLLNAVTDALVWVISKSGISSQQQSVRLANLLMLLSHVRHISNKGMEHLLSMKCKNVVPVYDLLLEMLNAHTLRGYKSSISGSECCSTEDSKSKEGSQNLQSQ
Sequence (P19785 whole entry, looked up): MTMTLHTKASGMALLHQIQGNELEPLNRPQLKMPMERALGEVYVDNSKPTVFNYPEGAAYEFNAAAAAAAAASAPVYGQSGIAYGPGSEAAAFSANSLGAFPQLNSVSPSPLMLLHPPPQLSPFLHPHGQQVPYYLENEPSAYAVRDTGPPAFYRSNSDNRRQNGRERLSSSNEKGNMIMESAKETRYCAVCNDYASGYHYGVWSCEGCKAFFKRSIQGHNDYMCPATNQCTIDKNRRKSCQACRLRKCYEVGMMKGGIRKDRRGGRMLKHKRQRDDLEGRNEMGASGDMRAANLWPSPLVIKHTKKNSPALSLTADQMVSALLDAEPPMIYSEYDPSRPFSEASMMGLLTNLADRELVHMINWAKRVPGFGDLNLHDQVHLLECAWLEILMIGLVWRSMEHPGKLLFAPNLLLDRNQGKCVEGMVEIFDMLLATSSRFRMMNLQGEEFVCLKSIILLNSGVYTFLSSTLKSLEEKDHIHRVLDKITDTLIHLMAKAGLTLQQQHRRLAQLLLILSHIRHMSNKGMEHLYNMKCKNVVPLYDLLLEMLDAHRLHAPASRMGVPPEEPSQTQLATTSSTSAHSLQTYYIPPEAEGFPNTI
Experiment: Anti-estrogenic effect in uterotrophic assay in immature mice at 1.0 ug dose
Format: functional
parameter: inhibition (%)
Just the number please, in %, no unit attached.

Below: 5 compounds and their reported inhibition.
CCCC(=C(c1ccc(OC(C)=O)cc1)c1ccc(OC(C)=O)cc1)c1ccccc1 = 19
CC(=O)Oc1ccc(C(=C(CC(F)(F)F)c2ccccc2)c2ccc(OC(C)=O)cc2)cc1 = 0
CCC(=C(c1ccc(OC(C)=O)cc1)c1ccc(OC(C)=O)cc1)c1ccccc1 = 0
CCC(c1ccccc1)C(c1ccc(OC(C)=O)cc1)c1ccc(OC(C)=O)cc1 (configuration not stated) = 27
CCC1(c2ccccc2)OC1(c1ccc(OC(C)=O)cc1)c1ccc(OC(C)=O)cc1 (configuration not stated) = 23

What inhibition value was documented for this compound, CC(=O)Oc1ccc(C(=C(c2ccccc2)C(C)C)c2ccc(OC(C)=O)cc2)cc1 ?
0

What inhibition value was documented for this compound, CC(=O)Oc1ccc(C(=Cc2ccccc2)c2ccc(OC(C)=O)cc2)cc1 ?
26

----------
Biological target: Estrogen receptor (Mus musculus) (UniProt O08537+P19785)
Test: Estrogenic effect in uterotrophic assay in immature mice at 100 ug dose
Type: functional
# Activity annotations
Number only, no unit.

CC(=O)Oc1ccc(C(=Cc2ccccc2)c2ccc(OC(C)=O)cc2)cc1 = 116
CC(=O)Oc1ccc(C(=C(CC(F)(F)F)c2ccccc2)c2ccc(OC(C)=O)cc2)cc1 = 86

What Activity value was documented for this compound, CCC(=C(c1ccc(OC(C)=O)cc1)c1ccc(OC(C)=O)cc1)c1ccccc1 ?
107

What Activity value was documented for this compound, CC(=O)Oc1ccc(C(=C(c2ccccc2)C(C)C)c2ccc(OC(C)=O)cc2)cc1 ?
117

What Activity value was documented for this compound, CCCC(=C(c1ccc(OC(C)=O)cc1)c1ccc(OC(C)=O)cc1)c1ccccc1 ?
114

----------
Target: Estrogen receptor (Mus musculus) (UniProt O08537+P19785)
Test: In vivo inhibition of uterine growth in hormone-dependent MXT mammary tumor bearing mice
Type: functional, organism-based
parameter: T/C (%)
Just the number please, in %, no unit attached.

CCCC(=C(c1ccc(OC(C)=O)cc1)c1ccc(OC(C)=O)cc1)c1ccccc1 = 93.3

Notebook: pull reported T/C for Estrogen receptor (Mus musculus) (UniProt O08537+P19785), entry CC(=O)Oc1ccc(C(=C(CC(F)(F)F)c2ccccc2)c2ccc(OC(C)=O)cc2)cc1
128

Notebook: pull reported T/C for Estrogen receptor (Mus musculus) (UniProt O08537+P19785), entry CC(=O)Oc1ccc(C(=C(c2ccccc2)C(C)C)c2ccc(OC(C)=O)cc2)cc1
128

Notebook: pull reported T/C for Estrogen receptor (Mus musculus) (UniProt O08537+P19785), entry CCC(c1ccccc1)C(c1ccc(OC(C)=O)cc1)c1ccc(OC(C)=O)cc1 (stereo not given)
73.7

Notebook: pull reported T/C for Estrogen receptor (Mus musculus) (UniProt O08537+P19785), entry CCC1(c2ccccc2)OC1(c1ccc(OC(C)=O)cc1)c1ccc(OC(C)=O)cc1 (stereo not given)
77.9

----------
Target: Estrogen receptor (Mus musculus) (UniProt O08537+P19785)
Test: In vivo inhibition of uterine growth in hormone-dependent MXT mammary tumor bearing mice
Type: functional, organism-based
parameter: T/C (%)
Just the number please, in %, no unit attached.

Below: 2 compounds and their reported T/C.
CCC(=C(c1ccc(OC(C)=O)cc1)c1ccc(OC(C)=O)cc1)c1ccccc1 = 124
CC(=O)Oc1ccc(C(=Cc2ccccc2)c2ccc(OC(C)=O)cc2)cc1 = 54.8

Field: next compound
What T/C value was documented for this compound, CC(=O)Oc1ccc(C(=C(C)c2ccccc2)c2ccc(OC(C)=O)cc2)cc1 ?
120

----------
# Activity annotations
Target: Estrogen receptor (Mus musculus) (UniProt O08537+P19785)
Assay: Estrogenic effect in uterotrophic assay in immature mice at 100 ug dose
Type: functional
Number only, no unit.

Below: 2 compounds and their reported Activity.
CCC1(c2ccccc2)OC1(c1ccc(OC(C)=O)cc1)c1ccc(OC(C)=O)cc1 (stereo not drawn) = 60
CCC(c1ccccc1)C(c1ccc(OC(C)=O)cc1)c1ccc(OC(C)=O)cc1 (stereo not drawn) = 83

What Activity value was documented for this compound, CC(=O)Oc1ccc(C(=C(C)c2ccccc2)c2ccc(OC(C)=O)cc2)cc1 ?
78

Origin of the recorded values: ChEMBL document CHEMBL1123345
